- subject.of.test: MEX-5 (Caenorhabditis elegans)
- Construct: The fragment of mex-5 containing the TZF domain (amino acids 236-350) was amplified; made in house; host or cells: Escherichia coli JM109
- Sequence (Q9XUB2 236-350): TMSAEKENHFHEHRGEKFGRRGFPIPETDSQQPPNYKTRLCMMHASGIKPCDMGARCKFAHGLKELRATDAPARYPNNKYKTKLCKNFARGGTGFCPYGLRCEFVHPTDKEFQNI
- measurement.protocol: Fluorescence polarization screening of MEX-5 binding to fluorescein-labeled TCR2 RNA
- measurement.context: 192 μM test compound; score = polarization relative to no-drug and no-protein controls; 0.25 = 75% inhibition; lowest score = greatest inhibition; read-out: MEX-5 score

substance.smiles | unit.symbol | remaining activity at 192 µM
CCCCC(=O)Nc1cccc(NC(=S)NC(=O)C(C)C)c1 | % | 20.2
O=[N+]([O-])c1cc(CN2CCOCC2)c2cccnc2c1O | % | 6.21
CC(=O)Oc1ccc(S(=O)(=O)c2ccc(OC(C)=O)c(OC(C)=O)c2)cc1OC(C)=O | % | -0.0941
O=[N+]([O-])c1cccc(S(=O)(=O)Nc2cc(Cl)c(O)c3ccccc23)c1 | % | 6.69
CCCCn1c(NC(=S)Nc2ccccc2)nc2ccccc21 | % | 14.1
Cc1ccc(O)c(NS(=O)(=O)c2ccc([N+](=O)[O-])cc2)c1 | % | 22.6
Cc1cc([N+](=O)[O-])ccc1NC(=O)c1cnccn1 | % | 17.2
Cc1[nH]nc(-c2ccc(O)c(O)c2O)c1-c1ccccc1 | % | 3.42
Cn1c(S)nnc1-c1ccccc1O | % | 6.88
COc1ccc(NC(=S)c2nc3ccccc3[nH]2)cc1 | % | 5.51
O=C(Cn1cnc2ccccc2c1=O)Nc1ccc(S(=O)(=O)Nc2nccs2)cc1 | % | 18.2

The values you see were collected from patent US8962244B2.
